# System: HCT-116
# Test: NCI tumour cell line growth inhibition, 48 h
Active and inactive are the calls of the source. No stated cut-off is given here; in the data, active = GI50 up to about 1.1 µM and inactive = higher.
Would you mind answering with one of these outcomes? 1 for active, -1 for inactive

Request: What is the recorded call for this compound in the test? Cc1cc(=O)oc2c(CNC(C)C(=O)O)c(O)ccc12 (stereo unspecified)
Result: -1

Request: Quick one: `O=C1/C(=C/c2ccco2)N=C2Sc3c([nH]cnc3=O)N12`
Result: -1

Request: # iterate: `O=C(Nc1cc2c(=O)oc3ccccc3c2oc1=O)c1cccnc1`
Result: -1

Request: What do you have for N#CC1=C(N)OC(c2cccc([N+](=O)[O-])c2)C1(C#N)C#N (stereo unspecified) ?
Result: -1

Request: What would you report for `C=C[Si](C)(C)COC(=O)/C(C#N)=C/C=C/c1ccccc1` ?
Result: -1

Request: Same again, this time with `COc1cc2c(cc1OC)CC(=O)c1cc(OC)c(OC)cc1/C=C\2`
Result: -1

Request: Try this compound too: `O=C(Cn1c(=O)oc2ccc(C(=O)c3ccccc3Cl)cc21)c1ccc([N+](=O)[O-])cc1`
Result: -1

Request: Queued: `O=[N+]([O-])/C=C/COCc1cc2c(cc1Br)OCO2`
Result: -1

Request: Proceed to `CSC(=S)N/N=C(\C)c1cccc(C)n1`
Result: 1

Request: Consider next the compound C=C1C(=O)OC2/C=C(\C)CC(O)/C=C(/CO)CC(OC(=O)/C(C)=C/C)C12 (stereo unspecified) in the same way.
Result: -1

Request: // same read-out, input: `O=C(NC1=C(Cl)C(=O)c2ccccc2C1=O)C(=O)c1c(O)c2ccccc2oc1=O`
Result: -1
